Target: T1, rat PAI-1 (rat, UniProt P20961 24-402)
T1 sequence: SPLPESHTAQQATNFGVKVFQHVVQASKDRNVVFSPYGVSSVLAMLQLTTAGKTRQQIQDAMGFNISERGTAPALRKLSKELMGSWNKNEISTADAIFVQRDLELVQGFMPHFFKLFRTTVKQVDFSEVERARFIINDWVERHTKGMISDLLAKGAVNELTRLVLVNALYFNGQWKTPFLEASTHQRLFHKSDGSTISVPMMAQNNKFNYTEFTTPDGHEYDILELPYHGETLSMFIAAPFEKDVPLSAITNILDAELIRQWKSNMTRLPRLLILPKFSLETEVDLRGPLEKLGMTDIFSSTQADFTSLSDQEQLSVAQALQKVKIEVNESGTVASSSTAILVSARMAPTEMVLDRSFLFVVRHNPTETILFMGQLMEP
Experiment: cell-based or functional assay
measured endpoint: IC50 HT-1080 Exo PAI-1 (µM)
Record the value in µM, omitting the unit from your answer.

Observe how each entry below is paired with its result.
binder	measured endpoint	numeric value
Antibody 27, IgG1, not germlined (antibody, V domains shown, whole IgG1; also called Ab 27) VH: QVQLQQSGAEVKKPGSSVKVSCKASGGAFSSYAISWVRQAPGQGLEWMGGIIPTFGTANYAQKFQGRVTITADESTSTAYMELSGLRSEDTAVYYCAREKRQWLEGHFDYWGRGTPVTVSS VL: DIQMTQSPSFLSASIGDRVTITCRASEGIYHNLAWYQQKPGKAPKLLIYRASSLASGAPSRFSGSGSGTDFTLTISSLQPDDFATYYCQQYSNYPLTFGGGTKLEIK	IC50 HT-1080 Exo PAI-1	0.0161
Antibody 16, scFv (scFv, V domains shown) VH: QVQLVQSGAEVKKPGSSVKVSCKASGGTFSSYAISWVRQAPGQGLEWMGGIIPTFGTANYAQKFQGRVTITADESTSTAYMELSSLRSEDTAVYYCAREKRQWLEGHFDYWGRGTLVTVSS VL: DIQMTQSPSTLSASVGDRVTITCRASESIYHSLAWYQQKPGKAPKLLIYKASSLASGVPSRFSGSRSGTEFTLTISSLQPDDFATYYCQQYSNYPLTFGGGTKVEIK	IC50 HT-1080 Exo PAI-1	0.0526
Antibody 09, scFv (scFv, V domains shown) VH: QVQLQQSGAEVKKPGSSVKVSCKASGGTFSSYAISWVRQAPGQGLEWMGGIIPAFDTANYAQKFQGRVTITADESTSTAYMELSGLRSEDTAVYYCAREKRQWLEGHFDYWGRGTPVTVSS VL: DIQMTQSPSFLSASIGDRVTITCQASEGIYHNLAWYQQKPGKAPKLLIYRASSLASGAPSRFSGSGSGTDFTLTISSLQPDDFATYYCQQYSNYPLTFGGGTKLEIK	IC50 HT-1080 Exo PAI-1	0.0527
Antibody 15, scFv (scFv, V domains shown) VH: QVQLQQSGAEVKKPGSSVKVSCKASGGTFSSYAISWVRQAPGQGLEWMGGIIPTFGTANYAQKFQGRVTITADESTSTAYMELSGLRSEDTAVYYCAREKRQWLEGHFDYWGRGTPVTVSS VL: DIQMAQSPSFLSASIGDRVTITCRASEGIYHNLAWYQQKPGKAPKLLIYRASSLASGAPSRFSGSGSGTDFTLTISSLQPDDFATYYCQQYSNYPLTFGGGTKLEIR	IC50 HT-1080 Exo PAI-1	0.057

For Antibody 08, scFv (scFv, V domains shown) VH: QVQLVQSGAEVKKPGSSVKVSCKASGGTFSSYAISWVRQAPGQGLEWMGGIIPTFGTANYAQKFQGRVTITADESTSTAYMELSSLRSEDTAVYYCARERRQWLEGHFDYWGRGTLVTVSS VL: DIQMTQSPSTLSASVGDRVTITCRASEGIYHNLAWYQQKPGKAPKLLIYKASSLASGVPSRFSGSRSGTEFTLTISSLQPDDFATYYCQQYSNYPLTFGGGTKVEIK , what is its reported IC50 HT-1080 Exo PAI-1?
0.0501
